# Test system: Female housefly
# TEST_METHOD_NOTES: Metabolism of 3H-ethoxyaniline by female RSP housefly
# CONDITION_CONTEXT: 24 hr after topical 1.0 μg 3H-ethoxyaniline (compound III); homogenate
QUANTITY_MEASURED: Female housefly, percent 3H in Homogenate

[[record]]
compound = "CCOc1ccc(C(=O)C(Cl)Cl)cc1 [C2 H5 OC6 H4 C(O)CHCl2, p-ethoxydichloroacetophenone]"
target_entity = "Female housefly"
experimental_value = "10.4%"

[[record]]
compound = "CCOc1ccc(NC(c2ccc(OCC)cc2)C(Cl)(Cl)Cl)cc1 (stereo not shown)"
target_entity = "Female housefly"
experimental_value = "37.6%"

[[record]]
compound = "Oc1ccc(NC(c2ccc(O)cc2)C(Cl)(Cl)Cl)cc1 (stereo not shown)"
target_entity = "Female housefly"
experimental_value = "8.4%"

[[record]]
compound = "CCOc1ccc(N)cc1"
target_entity = "Female housefly"
experimental_value = "8.3%"


meta.source: patent US3941842A
